Numbers sourced from patent US8575163B2.

Target: PDK1 (Homo sapiens)
Sequence (O15530 51-556 limits assumed): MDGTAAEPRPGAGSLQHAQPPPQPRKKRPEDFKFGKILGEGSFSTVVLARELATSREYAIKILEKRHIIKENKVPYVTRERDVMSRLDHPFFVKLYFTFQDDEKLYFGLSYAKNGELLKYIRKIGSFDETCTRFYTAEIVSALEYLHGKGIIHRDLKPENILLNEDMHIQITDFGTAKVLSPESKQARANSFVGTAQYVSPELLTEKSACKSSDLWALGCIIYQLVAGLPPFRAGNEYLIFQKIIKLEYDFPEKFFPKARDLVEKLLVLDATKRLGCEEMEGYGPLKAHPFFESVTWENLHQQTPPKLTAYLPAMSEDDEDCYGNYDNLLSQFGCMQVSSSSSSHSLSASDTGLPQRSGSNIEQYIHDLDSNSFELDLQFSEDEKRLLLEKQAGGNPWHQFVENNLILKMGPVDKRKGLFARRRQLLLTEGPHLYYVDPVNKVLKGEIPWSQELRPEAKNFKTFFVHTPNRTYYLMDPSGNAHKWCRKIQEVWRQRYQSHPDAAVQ
Consider the cut-off 0.04 µM. If the recorded IC50 is strictly smaller, the label is y; if not, the label is n.

- compound: "CC(O)(c1ccccc1)c1cc(-c2c[nH]c3ncc(-c4cnn(CC5CC5)c4)cc23)nc(N)n1 (stereo not shown) [A83]"
  answer-label: "n"
- compound: "CCC(O)(c1ccncc1)c1cc(-c2c[nH]c3ncc(-c4cnn(C)c4)cc23)nc(N)n1 (single isomer, unassigned) [A21]"
  answer-label: "y"
- compound: "CC[C@@](O)(c1cc(-c2c[nH]c3ncc(-c4cnn(C)c4)cc23)nc(N)n1)c1cccc(F)c1F (single isomer, unassigned) [A126]"
  answer-label: "n"
- compound: "COC(=O)CCn1cc(-c2cnc3[nH]cc(-c4cc(C(C)(O)c5ccccc5)nc(N)n4)c3c2)cn1 (stereo not shown) [A70]"
  answer-label: "n"
- compound: "CC(C)[C@@](O)(c1ccccc1)c1cc(-c2c[nH]c3ncc(-c4cnn(C)c4)cc23)nc(N)n1 (single isomer, unassigned) [A127]"
  answer-label: "y"
- compound: "Cn1cc(-c2cnc3[nH]cc(-c4cc(C(C)(O)c5ccncn5)nc(N)n4)c3c2)cn1 (stereo not shown) [A113]"
  answer-label: "y"
